The values you see were collected from patent US20240174727A1.

# TARGET UNDER TEST: T1, rat NPRA (rat, UniProt P18910 29-1057)
# T1 sequence (looked up): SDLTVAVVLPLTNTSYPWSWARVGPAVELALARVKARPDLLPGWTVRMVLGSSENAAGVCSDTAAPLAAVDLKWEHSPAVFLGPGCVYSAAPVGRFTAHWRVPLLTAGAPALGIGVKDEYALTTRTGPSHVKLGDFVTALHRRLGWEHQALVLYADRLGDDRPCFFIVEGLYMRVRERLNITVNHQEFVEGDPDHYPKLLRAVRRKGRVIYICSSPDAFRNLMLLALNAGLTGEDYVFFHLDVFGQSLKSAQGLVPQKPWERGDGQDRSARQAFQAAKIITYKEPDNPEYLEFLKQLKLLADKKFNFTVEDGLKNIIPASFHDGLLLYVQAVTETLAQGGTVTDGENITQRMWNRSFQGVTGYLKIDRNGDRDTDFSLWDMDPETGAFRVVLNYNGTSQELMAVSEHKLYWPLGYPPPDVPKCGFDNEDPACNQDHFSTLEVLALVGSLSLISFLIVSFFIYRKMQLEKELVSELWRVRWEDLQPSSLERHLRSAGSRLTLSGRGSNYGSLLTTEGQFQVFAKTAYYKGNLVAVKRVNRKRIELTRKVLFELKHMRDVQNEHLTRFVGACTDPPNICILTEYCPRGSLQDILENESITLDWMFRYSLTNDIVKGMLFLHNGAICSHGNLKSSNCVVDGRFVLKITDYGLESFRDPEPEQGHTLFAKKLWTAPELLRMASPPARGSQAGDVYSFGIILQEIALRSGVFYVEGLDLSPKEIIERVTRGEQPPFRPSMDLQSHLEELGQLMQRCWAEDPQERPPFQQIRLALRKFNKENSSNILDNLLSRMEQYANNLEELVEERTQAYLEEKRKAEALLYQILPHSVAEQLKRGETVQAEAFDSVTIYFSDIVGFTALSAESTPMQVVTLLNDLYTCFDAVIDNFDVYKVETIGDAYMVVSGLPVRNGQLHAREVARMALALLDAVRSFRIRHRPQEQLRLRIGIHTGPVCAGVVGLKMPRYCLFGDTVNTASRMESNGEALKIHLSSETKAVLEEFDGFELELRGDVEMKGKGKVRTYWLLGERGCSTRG
# ASSAY INFO: cell-based or functional assay
Numbered stars: 1 amine (or outer) side, 2 acyl side, 3 side chain; on linkers, the order of the positions; unused ones are H or OH. Bridge positions count the residues as written; N and C are the ends. Square brackets hold non-standard residues; d marks the D form. * marks the point of attachment. thioacetal = thioacetal linkage between two cysteines (intrachain bond at the bracketed Cys); C20 diacid = O=C(O)CCCCCCCCCCCCCCCCCCC(=O)*; γGlu = O=C(O)[C@H](CCC(=O)[*:2])N[*:1]; 4Pal = N[C@@H](Cc1ccncc1)C(=O)O; Aib = CC(C)(N)C(=O)O
READOUT TYPE: cGMP Assay (EC50, pM) w/Casein
Reply with just the number (in pM).

Please review the following examples before continuing.
- BINDER: "{C20 diacid}-[γGlu]EKEKEKGS[4Pal]RRSSCFGGRIDRIGHQSGLGCPSFRHGGKSSGAPPPS-NH2 (bridge 15-31 via thioacetal) [Example 72]"
  READING UNIT: "pM"
  VALUE: 40500
- BINDER: "{C20 diacid}-[γGlu]EKEKEKGS[4Pal]RRSSCFGGRIDRIGHQSGLGCPSFRHGGPPS[Aib]KPPPK-NH2 (bridge 15-31 via thioacetal) [Example 68]"
  READING UNIT: "pM"
  VALUE: 12100
- BINDER: "{C20 diacid}-[γGlu]EKEKEKGS[4Pal]RRSSCFGGRIDRIGHQSGLGCPSFRHRITAREDKQGYA-NH2 (disulfide 15-31) [Example 25]"
  READING UNIT: "pM"
  VALUE: 654

Exam item: May I ask what cGMP Assay (EC50, pM) w/Casein has been recorded for {C20 diacid}-[γGlu]EKEKEKGS[4Pal]RRSSCFGKRIDRIGHQSGLGCPSFRHGGKSSGAPPPS-NH2 (bridge 15-31 via thioacetal) [Example 79] ?
Marked response: 3440

Exam item: Also {C20 diacid}-[γGlu]EKEKEKGS[4Pal]RRSSCFGRKIDRIGHQSGLGCPSFRHGGKSSGAPPPS-NH2 (bridge 15-31 via thioacetal) [Example 80] , if possible.
Marked response: 3550

Exam item: Also XEKEKEKGSXKRSSCFGGKIDRIGXQSGLGCPSFRHGGPSSGAPPPS (HOOC-(CH2)18-CO-(γGlu)-EKEKEKGS-4Pal-KRSS[CFGGKIDRIG-Dap-QSGLGC]PSFRHGGPSSGAPPPS-NH2; disulfide linkage between the bracketed Cys) [Example 31] , if possible.
Marked response: 12200
